- TARGET_UNDER_TEST: Prothrombin (Homo sapiens)
- EXPERIMENT_NOTES: Inhibition of human thrombin using Boc-VPR-AMC as substrate at 25 uM preincubated for 15 mins before substrate addition measured up to 10 mins by spectrofluorimetry
Active and inactive are the calls of the source. The rule behind the calls is not given here.
QUANTITY_KIND: inhibition

Below are worked cases with known answers.
{"columns": ["COMPOUND", "TARGET_UNDER_TEST", "inhibition"],
 "data": [
  ["N#C/C(=C\\c1cccs1)C(N)=O", "Prothrombin (Homo sapiens)", "15.7%"],
  ["N#C/C(=C\\c1ccc(N2CCOCC2)cc1)C(N)=O", "Prothrombin (Homo sapiens)", "19.2%"],
  ["COc1cc(/C=C(\\C#N)C(N)=O)ccc1OCc1ccccc1", "Prothrombin (Homo sapiens)", "16%"],
  ["COc1cc(CC(C#N)C(N)=O)cc(OC)c1OC (configuration not stated)", "Prothrombin (Homo sapiens)", "inactive"],
  ["CC(=C\\c1ccccc1)/C=C(\\C#N)C(N)=O", "Prothrombin (Homo sapiens)", "20.5%"],
  ["COc1cc(/C=C(\\C#N)C(N)=O)cc(I)c1O", "Prothrombin (Homo sapiens)", "23%"],
  ["CN(C)c1ccc(/C=C/C=C(\\C#N)C(=O)NC2CC2)cc1", "Prothrombin (Homo sapiens)", "16.2%"],
  ["N#C/C(=C\\c1cccc(C(=O)NC2CC2)c1)C(=O)NC1CC1", "Prothrombin (Homo sapiens)", "8%"],
  ["N#C/C(=C\\c1ccc(Cl)s1)C(N)=O", "Prothrombin (Homo sapiens)", "27.9%"],
  ["CN(C)c1ccc(/C=C(\\C#N)C(=O)NCc2ccccn2)cc1", "Prothrombin (Homo sapiens)", "inactive"]
]}

# batch size: 8; output inhibition per entry
1. N#C/C(=C\c1ccc(Br)s1)C(=O)NC1CC1
2. N#C/C(=C\c1ccc(O)cc1)C(=O)NC1CC1
3. CN(C)c1ccc(/C=C(\C#N)C(=O)NCC2CCCO2)cc1 (configuration not stated)
4. N#C/C(=C\c1sccc1Br)C(N)=O
5. CN(C)c1ccc(/C=C(\C#N)C(N)=S)cc1
6. N#C/C(=C\c1ccccc1N1CCOCC1)C(N)=O
7. N#C/C(=C\c1ccc(N2CCNCC2)cc1)C(N)=O
8. CC(=O)Oc1ccc(/C=C(\C#N)C(N)=O)cc1

1. 17.9%
2. 18.8%
3. 19.8%
4. 10.1%
5. 13.7%
6. 7.4%
7. 26.1%
8. 24.4%

Hey, quick one: what's inhibition for each of these?
1. C/C(=C(/C#N)C(N)=O)c1ccc(O)cc1
2. CC(C)/C(=C(/C#N)C(N)=O)c1ccccc1
3. C/C(=C\c1ccccc1)CC(C#N)C(N)=O (configuration not stated)
4. COc1ccc(/C=C(\C#N)C(N)=O)cc1OC
5. COC(=O)[C@H](CO)NC(=O)/C(C#N)=C/c1ccc(OC)cc1
6. CN(C)c1ccc(/C=C(\C#N)C(N)=O)cc1
7. N#C/C(=C\c1ccccc1)C(N)=O
8. COc1ccc(/C=C(\C#N)C(N)=O)cc1

["inactive", "16.7%", "inactive", "20%", "21.4%", "21.6%", "12.5%", "16.7%"]

Short answer please: inhibition, Prothrombin (Homo sapiens), entry C/C(=C(/C#N)C(N)=O)c1ccccc1
7.3%

###

Would you kindly list inhibition for each of these compounds?
- TARGET_UNDER_TEST: UniProt P00734
- EXPERIMENT_NOTES: Inhibition of human thrombin using Boc-VPR-AMC as substrate at 25 uM preincubated for 15 mins before substrate addition measured up to 10 mins by spectrofluorimetry

// worked examples, inhibition included
{"columns": ["COMPOUND", "TARGET_UNDER_TEST", "inhibition"],
 "data": [
  ["N#C/C(=C\\c1ccc(N2CCOCC2)s1)C(N)=O", "UniProt P00734", "38.6%"],
  ["N#C/C(=C\\c1ccc(C(=O)N2CCOCC2)cc1)C(=O)NC1CC1", "UniProt P00734", "9%"],
  ["N#C/C(=C\\c1ccc(Br)o1)C(=O)NC1CC1", "UniProt P00734", "26.9%"],
  ["COc1ccc(/C=C(\\C#N)C(=O)N[C@@H](CO)C(=O)NC2CC2)cc1", "UniProt P00734", "23.3%"],
  ["N#C/C(=C\\c1ccc(O)cc1)C(=O)NCc1ccccn1", "UniProt P00734", "18.9%"],
  ["COc1cccc(/C=C(\\C#N)C(N)=O)c1", "UniProt P00734", "9.6%"]
]}

Provide reported inhibition for each item, in the same order as listed.
1. N#C/C(=C\c1ccc(C(=O)O)cc1)C(N)=O
2. CCN(CC)C(=O)/C(C#N)=C/c1cc(O)c(O)c([N+](=O)[O-])c1
3. CN1CCN(C(=O)/C(C#N)=C/c2ccc(O)cc2)CC1
4. N#C/C(=C\c1ccc(O)cc1)C(=O)NCC1CCCO1 (configuration not stated)

1: 13.2%; 2: 21.9%; 3: 20.8%; 4: 16.8%

// inhibition lookup, key: CCC/C(=C(/C#N)C(N)=O)c1ccccc1
11.1%

###

- Tested on: West Nile virus
- EXPERIMENT_NOTES: Inhibition of West Nile virus NS2B-NS3 protease expressed in Escherichia coli BL21 lambda (DE3) using Abz-GLKRGG-3-(NO2)Y as substrate at 50 uM preincubated for 15 mins before substrate addition measured up to 15 mins by spectrofluorimetry
Class TRUE: inhibition at least 20%. Class FALSE: inhibition below 20%.

These solved cases illustrate the format of a correct answer.
{"columns": ["COMPOUND", "CLASSIFICATION"],
 "data": [
  ["N#C/C(=C\\c1ccc([N+](=O)[O-])cc1)C(N)=O", "FALSE"],
  ["Cc1ccc(/C=C(\\C#N)C(N)=O)cc1", "TRUE"],
  ["N#C/C(=C\\c1ccccc1N1CCOCC1)C(N)=O", "FALSE"],
  ["N#C/C(=C\\c1cccc(O)c1)C(N)=O", "FALSE"]
]}

I'd appreciate it if you could say whether CC(=C\c1ccccc1)/C=C(\C#N)C(=O)NCC1CCCO1 (stereo unspecified) has inhibition at least equal to 20%.
TRUE

Reported inhibition at or above 20%? N#C/C(=C\c1ccc(C(=O)O)cc1)C(=O)NC1CC1
TRUE

###

- Tested on: Dengue virus
- EXPERIMENT_NOTES: Inhibition of Dengue virus NS2B-NS3 protease expressed in Escherichia coli BL21 lambda (DE3) using Abz-NleKRRS-3-(NO2)Y as substrate at 50 uM preincubated for 15 mins before substrate addition measured up to 15 mins by spectrofluorimetry
Active and inactive are the calls of the source. The calls are words filed in the database; no cut-off is given here.
QUANTITY_KIND: inhibition

Worked examples, 5 molecules total:
{"columns": ["MOLECULE", "QUANTITY_KIND", "MEASURED_RESULT"],
 "data": [
  ["CN1CCN(c2ccc(/C=C(\\C#N)C(N)=O)cc2)CC1", "inhibition", "32.3%"],
  ["COc1cc(/C=C(\\C#N)C(N)=O)ccc1OCc1ccccc1", "inhibition", "inactive"],
  ["N#C/C(=C\\c1ccc(Br)o1)C(=O)NC1CC1", "inhibition", "15.6%"],
  ["CCC/C(=C(/C#N)C(N)=O)c1ccccc1", "inhibition", "6.7%"],
  ["CC(C)/C(=C(/C#N)C(N)=O)c1ccccc1", "inhibition", "inactive"]
]}

Need inhibition for each of these molecules.
1. N#C/C(=C\c1ccc(C(=O)O)cc1)C(N)=O
2. N#C/C(=C\c1ccc(N2CCNCC2)cc1)C(N)=O
3. N#C/C(=C\c1ccncc1)C(N)=O
4. COc1cc(/C=C(\C#N)C(N)=O)cc(I)c1O
5. N#C/C(=C\c1ccc([N+](=O)[O-])cc1)C(N)=O
6. CN(C)c1ccc(/C=C(\C#N)C(=O)NCC2CCCO2)cc1 (configuration not stated)
7. COC(=O)[C@H](CO)NC(=O)/C(C#N)=C/c1ccc(OC)cc1
8. CN(C)c1ccc(CC(C#N)C(N)=O)cc1 (configuration not stated)

1: 17.1%; 2: 28.6%; 3: inactive; 4: 30.5%; 5: inactive; 6: 23.3%; 7: 20.3%; 8: 7.1%

Parameter requested: inhibition. Apply to each item below.
1. CC(C)c1ccc(/C=C(\C#N)C(=O)NCc2ccccn2)cc1
2. CN1CCN(c2c(F)c(F)c(/C=C(\C#N)C(N)=O)c(F)c2F)CC1
3. CC(=O)Oc1ccc(/C=C(\C#N)C(N)=O)cc1
4. CN(C)c1ccc(/C=C(\C#N)C(N)=O)cc1

1. 24.9%
2. 19.2%
3. 43.1%
4. 35.1%

Could I get inhibition for every one of these entries?
1. N#C/C(=C\c1ccc(Cl)s1)C(N)=O
2. N#C/C(=C\c1ccc(CO)cc1)C(N)=O
3. N#C/C(=C\c1ccc(N2CCOCC2)s1)C(N)=O
4. N#C/C(=C\c1ccc(N2CCOCC2)cc1)C(N)=O
5. C/C(=C\c1ccccc1)CC(C#N)C(N)=O (configuration not stated)

["22%", "22.1%", "23.2%", "28.2%", "inactive"]

List the reported inhibition of each molecule below.
1. N#C/C(=C\c1ccc(O)c(O)c1)C(N)=O
2. CC(=C\c1ccccc1)/C=C(\C#N)C(=O)NCC1CCCO1 (configuration not stated)
3. N#C/C(=C\c1ccc(O)cc1)C(N)=O

34.9%
36.8%
51.7%
